Target of assay: Muscarinic acetylcholine receptor M2 (Homo sapiens); further: assay procedure not described here
Sequence (P08172 whole entry): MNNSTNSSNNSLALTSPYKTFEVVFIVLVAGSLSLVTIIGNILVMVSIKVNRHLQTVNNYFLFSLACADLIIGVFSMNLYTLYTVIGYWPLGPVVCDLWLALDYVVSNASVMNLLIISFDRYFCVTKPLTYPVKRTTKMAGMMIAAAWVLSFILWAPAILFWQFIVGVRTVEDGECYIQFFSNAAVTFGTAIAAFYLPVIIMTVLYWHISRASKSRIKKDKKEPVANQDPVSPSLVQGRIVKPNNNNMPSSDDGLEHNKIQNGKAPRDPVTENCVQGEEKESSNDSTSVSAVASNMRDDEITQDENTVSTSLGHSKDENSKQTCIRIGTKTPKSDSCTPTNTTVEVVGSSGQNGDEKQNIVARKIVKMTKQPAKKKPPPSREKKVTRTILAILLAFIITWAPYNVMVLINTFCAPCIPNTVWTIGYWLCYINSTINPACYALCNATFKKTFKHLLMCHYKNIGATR
Type: functional, cell-based
Quantity name: AC50

> print(dat)
                                   molecule  observed.value
1  CCC(NC(C)C)C(O)c1ccc(O)c2[nH]c(=O)ccc12 (stereo not drawn)         > 30 µM
2     C[N+](C)(C)CCOP(=O)([O-])OC[C@H](O)CO         > 30 µM
3        CCCN(CCC)S(=O)(=O)c1ccc(C(=O)O)cc1         > 10 µM

----------
Target of assay: 5-hydroxytryptamine receptor 2B (Homo sapiens, UniProt P41595); further: assay procedure not described here
Sequence (P41595 whole entry): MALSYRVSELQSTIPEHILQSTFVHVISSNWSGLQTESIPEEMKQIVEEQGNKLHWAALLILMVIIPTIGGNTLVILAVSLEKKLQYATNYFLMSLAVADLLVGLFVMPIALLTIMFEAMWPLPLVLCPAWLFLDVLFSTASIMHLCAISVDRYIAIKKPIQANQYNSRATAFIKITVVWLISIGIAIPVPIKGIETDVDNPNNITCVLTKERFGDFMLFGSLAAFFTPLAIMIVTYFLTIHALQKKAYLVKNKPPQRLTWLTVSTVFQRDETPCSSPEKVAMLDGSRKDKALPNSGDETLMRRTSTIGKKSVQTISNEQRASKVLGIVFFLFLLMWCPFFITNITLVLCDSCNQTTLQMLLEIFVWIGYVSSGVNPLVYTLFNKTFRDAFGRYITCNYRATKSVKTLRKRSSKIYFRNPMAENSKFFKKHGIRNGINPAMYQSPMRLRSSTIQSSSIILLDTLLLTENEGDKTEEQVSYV
Assay type: functional, cell-based
Overview of reported AC50 across a group of compounds:

Compound	Target of assay	AC50
C[C@@H]1C[C@H]2[C@@H]3C[C@H](F)C4=CC(=O)C=C[C@]4(C)[C@@]3(F)[C@@H](O)C[C@]2(C)[C@@]1(OC(=O)c1ccco1)C(=O)SCF [FLUTICASONE FUROATE]	5-hydroxytryptamine receptor 2B (Homo sapiens, UniProt P41595)	> 10 µM
CN(C)Cc1nnc2n1-c1ccc(Cl)cc1C(c1ccccc1)=NC2	5-hydroxytryptamine receptor 2B (Homo sapiens, UniProt P41595)	> 10 µM
COc1ccc2cc(CCC(C)=O)ccc2c1	5-hydroxytryptamine receptor 2B (Homo sapiens, UniProt P41595)	> 10 µM
O=C(O)c1cccnc1Nc1cccc(C(F)(F)F)c1	5-hydroxytryptamine receptor 2B (Homo sapiens, UniProt P41595)	> 10 µM
COc1ccc(C2C(=O)c3ccccc3C2=O)cc1	5-hydroxytryptamine receptor 2B (Homo sapiens, UniProt P41595)	> 10 µM
Oc1ccc(CCNCCCCCCNCCc2ccccc2)cc1O	5-hydroxytryptamine receptor 2B (Homo sapiens, UniProt P41595)	> 30 µM
CCC(NC(C)C)C(O)c1ccc(O)c2[nH]c(=O)ccc12 (centres undefined)	5-hydroxytryptamine receptor 2B (Homo sapiens, UniProt P41595)	> 30 µM
Cn1c(=O)c2c(ncn2CCOC(=O)C(C)(C)Oc2ccc(Cl)cc2)n(C)c1=O [THEOFIBRATE]	5-hydroxytryptamine receptor 2B (Homo sapiens, UniProt P41595)	> 30 µM
CO/N=C(\C(=O)N[C@@H]1C(=O)N2C(C(=O)O)=C(CSc3nc(=O)c(=O)[nH]n3C)CS[C@H]12)c1csc(N)n1	5-hydroxytryptamine receptor 2B (Homo sapiens, UniProt P41595)	> 30 µM

----------
Overview of reported AC50 across a group of molecules:
Target of assay: Thromboxane A2 receptor (Homo sapiens); further: assay procedure not described here
Sequence (P21731 whole entry): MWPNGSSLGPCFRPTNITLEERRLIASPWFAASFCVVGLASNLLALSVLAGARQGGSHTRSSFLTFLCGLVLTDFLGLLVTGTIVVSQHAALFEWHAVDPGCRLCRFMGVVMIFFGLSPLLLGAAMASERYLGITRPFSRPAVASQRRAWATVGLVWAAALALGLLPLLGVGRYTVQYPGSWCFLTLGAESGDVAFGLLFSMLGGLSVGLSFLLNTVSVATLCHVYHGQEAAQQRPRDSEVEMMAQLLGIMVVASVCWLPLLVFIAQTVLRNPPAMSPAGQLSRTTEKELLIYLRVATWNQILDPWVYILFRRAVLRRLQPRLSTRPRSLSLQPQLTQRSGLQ
Type: functional, cell-based
Quantity name: AC50

> print(dat)
                                   molecule  quantity.name  observed.value
1  CC(=O)O[C@H]1Cc2ccccc2N(C(N)=O)c2ccccc21 [ESLICARBAZEPINE ACETATE]           AC50         > 30 µM
2  CC(O)(CS(=O)(=O)c1ccc(F)cc1)C(=O)Nc1ccc(C#N)c(C(F)(F)F)c1 (centres undefined) [BICALUTAMIDE]           AC50          > 3 µM
3  CC(=O)[C@H]1CC[C@H]2[C@@H]3C=CC4=CC(=O)CC[C@@]4(C)[C@@H]3CC[C@]12C           AC50         25.1 µM
4  CC[N+](C)(CC)CCOC(=O)C(O)(c1ccccc1)C1CCCCC1 (centres undefined)           AC50         > 30 µM
